Target: Human 20S proteasome (Homo sapiens, UniProt P28074+P49721)
Experiment: human proteasome assay (chymotrypsin-like activity, Suc-LLVY-Rho-110-DPro)
Details: mean of at least three independent replicates
Task for the reader: assign each of the following compounds its reported Hs Prot pIC50.

Q: Give its Hs Prot pIC50 value. Item: COc1ccc(Cn2nc(C(=O)Nc3ccc(F)c(C(=O)NC4CC4)c3)ccc2=O)cc1F [Compound 15]
A: <4

Q: Give its Hs Prot pIC50 value. Item: COc1ccc(Cn2nc(C(=O)Nc3ccc(F)c(C(=O)N[C@H]4C[C@@H](N5CCOCC5)C4)c3)ccc2=O)cc1F [Compound 24]
A: <4

Q: Give its Hs Prot pIC50 value. Item: COc1ccc(Cn2nc(C(=O)Nc3ccc(F)c(C(=O)N[C@H](C)CO)c3)ccc2=O)cc1F [Compound 25]
A: <4

Q: Give its Hs Prot pIC50 value. Item: COc1ccc(Cn2nc(C(=O)Nc3ccc(F)c(C(=O)NC4CC4)c3)ccc2=O)cc1C#N [Compound 16]
A: <4

Q: Give its Hs Prot pIC50 value. Item: COc1ccc(Cn2nc(C(=O)Nc3ccc(F)c(C(=O)N[C@H]4C[C@H](N5CCOCC5)C4)c3)ccc2=O)cc1F [Compound 23]
A: <4

Q: Give its Hs Prot pIC50 value. Item: O=C(NC1CC1)c1cccc(NC(=O)c2ccc(=O)n(Cc3ccccc3)n2)c1 [Compound 5]
A: <4

Q: Give its Hs Prot pIC50 value. Item: COc1ccc(Cn2nc(C(=O)Nc3ccc(F)c(C(=O)NCCN4CCOCC4)c3)ccc2=O)cc1 [Compound 21]
A: <4

Q: Give its Hs Prot pIC50 value. Item: CN(C(=O)c1ccc(=O)n(Cc2ccccc2)n1)c1cccc(C(=O)NC2CC2)c1 [Compound 6]
A: <4

Q: Give its Hs Prot pIC50 value. Item: CNC(=O)c1cc(NC(=O)c2ccc(=O)n(Cc3ccc(OC)c(F)c3)n2)ccc1F [Compound 27]
A: <4

Q: Give its Hs Prot pIC50 value. Item: COc1ccc(Cn2nc(C(=O)Nc3ccc(F)c(C(=O)NC4CC4)c3)ccc2=O)cc1Cl [Compound 14]
A: <4

Q: Give its Hs Prot pIC50 value. Item: O=C(Nc1cccc(C(=O)NC2CC2)c1)c1ccc(=O)n(Cc2ccccc2)c1 [Compound 8]
A: <4

Q: Give its Hs Prot pIC50 value. Item: O=C(Nc1ccc(F)c(C(=O)NC2CC2)c1)c1ccc(=O)n(Cc2ccccc2)n1 [Compound 9]
A: <4

Q: Give its Hs Prot pIC50 value. Item: COc1ncc(Cn2nc(C(=O)Nc3ccc(F)c(C(=O)NC4CC4)c3)ccc2=O)cc1F [Compound 18]
A: <4

Q: Give its Hs Prot pIC50 value. Item: COc1ccc(Cn2nc(C(=O)Nc3ccc(F)c(C(=O)N[C@H]4C[C@H](OC)C4)c3)ccc2=O)cc1F [Compound 20]
A: <4

Q: Give its Hs Prot pIC50 value. Item: COc1ccc(Cn2nc(C(=O)Nc3ccc(F)c(C(=O)N[C@H]4C[C@H](OC)C4)c3)ccc2=O)cc1 [Compound 19]
A: <4

Q: Give its Hs Prot pIC50 value. Item: COc1ccc(Cn2nc(C(=O)Nc3ccc(F)c(C(=O)NC4CC4)c3)ccc2=O)cc1 [Compound 12]
A: <4

Q: Give its Hs Prot pIC50 value. Item: O=C(NC1CC1)c1ccc(F)c(NC(=O)c2ccc(=O)n(Cc3ccccc3)n2)c1 [Compound 10]
A: <4

Q: Give its Hs Prot pIC50 value. Item: O=C(Nc1ccc(F)c(-c2cn3nc(N4CCOCC4)cnc3n2)c1)N1CCCC1 [Compound 4]
A: <4

Q: Give its Hs Prot pIC50 value. Item: O=C(Nc1ccc(F)c(C(=O)NC2CC2)c1)c1ccc(=O)n(Cc2ccc(Cl)c(F)c2)n1 [Compound 17]
A: <4

###

Molecular target: T. cruzi proteasome (Trypanosoma cruzi, UniProt V5BU39+V5C017)
Sequence (V5BU39 entry or part of it): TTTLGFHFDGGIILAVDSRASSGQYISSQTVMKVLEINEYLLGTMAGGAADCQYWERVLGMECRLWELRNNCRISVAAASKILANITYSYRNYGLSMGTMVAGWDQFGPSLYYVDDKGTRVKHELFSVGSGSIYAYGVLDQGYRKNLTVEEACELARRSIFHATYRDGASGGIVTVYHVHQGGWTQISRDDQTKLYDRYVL
Sequence (V5C017 entry or part of it): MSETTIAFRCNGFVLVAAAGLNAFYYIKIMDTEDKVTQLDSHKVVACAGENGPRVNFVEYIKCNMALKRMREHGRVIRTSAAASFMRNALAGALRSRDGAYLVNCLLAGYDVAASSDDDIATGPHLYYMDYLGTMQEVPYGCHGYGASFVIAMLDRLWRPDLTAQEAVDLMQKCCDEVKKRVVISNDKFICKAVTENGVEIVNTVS
Experiment: T. cruzi proteasome assay (chymotrypsin-like activity, Suc-LLVY-Rho-110-DPro)
Conditions: individual replicate
endpoint-label: Tc Prot Max Response (%)
In your response, the unit should come after the numeric value.

Q: Given the entry COc1ccc(Cn2nc(C(=O)Nc3ccc(F)c(C(=O)NC4CC4)c3)ccc2=O)cc1Cl [Compound 14] , what Tc Prot Max Response (%) was observed with T. cruzi proteasome (Trypanosoma cruzi, UniProt V5BU39+V5C017)?
A: 86%

Q: Given the entry COc1ccc(Cn2nc(C(=O)Nc3ccc(F)c(C(=O)N[C@H]4C[C@H](N5CCOCC5)C4)c3)ccc2=O)cc1F [Compound 23] , what Tc Prot Max Response (%) was observed with T. cruzi proteasome (Trypanosoma cruzi, UniProt V5BU39+V5C017)?
A: 86%

Q: Given the entry COc1ccc(Cn2nc(C(=O)Nc3ccc(F)c(C(=O)NCCN4CCOCC4)c3)ccc2=O)cc1 [Compound 21] , what Tc Prot Max Response (%) was observed with T. cruzi proteasome (Trypanosoma cruzi, UniProt V5BU39+V5C017)?
A: 72%

Q: Given the entry COc1ccc(Cn2nc(C(=O)Nc3ccc(F)c(C(=O)NC4CC4)c3)ccc2=O)cc1C#N [Compound 16] , what Tc Prot Max Response (%) was observed with T. cruzi proteasome (Trypanosoma cruzi, UniProt V5BU39+V5C017)?
A: 62%

###

Assay: Brain tissue binding
Type: in vitro ADME
Conditions: read-out: brain tissue free fraction
endpoint-label: fraction unbound
Lab note: jot the number down without any unit.

Q: Give its fraction unbound value. Item: O=C(Nc1ccc(F)c(-c2cn3nc(N4CCOCC4)cnc3n2)c1)N1CCCC1
A: 0.043

###

Task for the reader: assign each of the following compounds its reported solubility at 24 h.
Assay: Kinetic aqueous solubility (UHPLC, PBS pH 7.4)
Type: physicochemical
Conditions: phosphate buffered saline, UHPLC UV/MS

Q: Give its solubility at 24 h value. Item: COc1ncc(Cn2nc(C(=O)Nc3ccc(F)c(C(=O)NC4CC4)c3)ccc2=O)cc1F [Compound 18]
A: < 1 µM

Q: Give its solubility at 24 h value. Item: COc1ccc(Cn2nc(C(=O)Nc3ccc(F)c(C(=O)NC4CC4)c3)ccc2=O)cc1C#N [Compound 16]
A: < 1 µM

Q: Give its solubility at 24 h value. Item: COc1ccc(Cn2nc(C(=O)Nc3ccc(F)c(C(=O)NC4CC4)c3)ccc2=O)cc1Cl [Compound 14]
A: < 1 µM
